assay: Acute 48 h aqueous toxicity test with glochidia (viability); type: in vivo, Lampsilis siliquoidea; settings: Lampsilis siliquoidea, in vivo, other: aqueous (water-only) exposure; 48-h aqueous exposure, 1.9 mg/L mean measured, n = 4; read-out: Viability (mean, % (standard deviation))
MEASURED_PARAMETER: viability at 48 h, 1.9 mg/L (%)
Give bare numbers, in %.

Input line: So what's the measured viability at 48 h, 1.9 mg/L for this one? C=C1C[C@H]2[C@@H]3C=C(C)C4=CC(=O)CC[C@]4(C)[C@H]3CC[C@]2(C)[C@@]1(OC(C)=O)C(C)=O [Melengestrol acetate]
Output line: 82

###

experiment: Acute 48 h aqueous toxicity test with glochidia (viability); assay type: in vivo, Lampsilis siliquoidea; conditions: Lampsilis siliquoidea, in vivo, other: aqueous (water-only) exposure; 48-h aqueous exposure, 0.05 mg/L mean measured, n = 4; read-out: Viability (mean, % (standard deviation))
MEASURED_PARAMETER: viability at 48 h, 0.05 mg/L (%)
Give bare numbers, in %.

Input line: Request the reported viability at 48 h, 0.05 mg/L associated with C=C1C[C@H]2[C@@H]3C=C(C)C4=CC(=O)CC[C@]4(C)[C@H]3CC[C@]2(C)[C@@]1(OC(C)=O)C(C)=O [Melengestrol acetate]
Output line: 82

###

test: Acute 48 h aqueous toxicity test with glochidia (viability); format: in vivo, Lampsilis siliquoidea; conditions: Lampsilis siliquoidea, in vivo
MEASURED_PARAMETER: viability at 48 h, 0.3 mg/L (%)
Answers are plain numbers, in %.

Input line: So what's the measured viability at 48 h, 0.3 mg/L for this one? CC(C)(C)NC(=O)[C@H]1CC[C@H]2[C@@H]3CC[C@H]4NC(=O)C=C[C@]4(C)[C@H]3CC[C@]12C [Finasteride]
Output line: 87

###

Assay: Acute 48 h aqueous toxicity test with glochidia (viability)
Format: in vivo, Lampsilis siliquoidea
Conditions: Lampsilis siliquoidea, in vivo
Procedure: Aqueous acute toxicity tests were based on the American Society for Testing and Materials (ASTM [2013]) protocols for conducting toxicity tests with early life stages of freshwater mussels. […] Glochidia were removed from gravid females and their viability (i.e., ability to close their valves) was assessed. […] After 24 and 48 h of exposure, glochidia viability was assessed in a minimum of 100 glochidia per replicate (four replicates). […]
MEASURED_PARAMETER: viability at 48 h, 2.5 mg/L (%)
Numbers only, in %.

Input line: Given the entry CC(C)(C)NC(=O)[C@H]1CC[C@H]2[C@@H]3CC[C@H]4NC(=O)C=C[C@]4(C)[C@H]3CC[C@]12C [Finasteride] , report its measured viability at 48 h, 2.5 mg/L.
Output line: 88

###

assay: Acute 48 h aqueous toxicity test with glochidia (viability); assay type: in vivo, Lampsilis siliquoidea; conditions: Lampsilis siliquoidea, in vivo
MEASURED_PARAMETER: viability at 48 h, 23 mg/L (%)
One number for each entry, in %.

Input line: So what does the record say about viability at 48 h, 23 mg/L for CC(C)(C)NC(=O)[C@H]1CC[C@H]2[C@@H]3CC[C@H]4NC(=O)C=C[C@]4(C)[C@H]3CC[C@]12C [Finasteride] ?
Output line: 85

###

test: Acute 48 h aqueous toxicity test with glochidia (viability); assay type: in vivo, Lampsilis siliquoidea; conditions: Lampsilis siliquoidea, in vivo, other: aqueous (water-only) exposure; 48-h aqueous exposure, 0.005 mg/L mean measured, n = 4; read-out: Viability (mean, % (standard deviation))
MEASURED_PARAMETER: viability at 48 h, 0.005 mg/L (%)
One number for each entry, in %.

Input line: Please report the recorded viability at 48 h, 0.005 mg/L for C=C1C[C@H]2[C@@H]3C=C(C)C4=CC(=O)CC[C@]4(C)[C@H]3CC[C@]2(C)[C@@]1(OC(C)=O)C(C)=O [Melengestrol acetate] .
Output line: 86

The values you see were collected from paper PMC7679302.
